- TEST PROTOCOL: Mice pharmacokinetic study after oral administration of a mixture of 11 TKIs
- Format: in vivo, FVB wild-type mice
- TEST CONTEXT: male, FVB wild-type, mouse, whole blood, po, 1 mg/kg
Counter-ions that a name gives are not always drawn.
REPORTED METRIC: concentration at 15 min (ng/mL)

CCN(CC)CCNC(=O)c1c(C)[nH]c(/C=C2\C(=O)Nc3ccc(F)cc32)c1C [Sunitinib, sunitinib malate] :: 9.4

1. Cc1ccc(NC(=O)c2ccc(CN3CCN(C)CC3)cc2)cc1Nc1nccc(-c2cccnc2)n1
2. CS(=O)(=O)CCNCc1ccc(-c2ccc3ncnc(Nc4ccc(OCc5cccc(F)c5)c(Cl)c4)c3c2)o1
3. C#Cc1cccc(Nc2ncnc3cc(OCCOC)c(OCCOC)cc23)c1 [Erlotinib, erlotinib hydrochloride]
Task for the reader: rank each entry by its concentration at 15 min, from the minimum upward. Output spec: labels arranged per the requested ranking.
2, 1, 3
(2: 8.8 ng/mL, 1: 53.1 ng/mL, 3: 147 ng/mL)

###

- TEST PROTOCOL: Mice pharmacokinetic study after oral administration of a mixture of 11 TKIs
- Format: in vivo, FVB wild-type mice
- TEST CONTEXT: male, FVB wild-type, mouse, whole blood, po, 1 mg/kg
REPORTED METRIC: concentration at 30 min (ng/mL)

Cc1ccc(NC(=O)c2ccc(CN3CCN(C)CC3)cc2)cc1Nc1nccc(-c2cccnc2)n1 :: 55.7

A. Cc1cn(-c2cc(NC(=O)c3ccc(C)c(Nc4nccc(-c5cccnc5)n4)c3)cc(C(F)(F)F)c2)cn1
B. CCN(CC)CCNC(=O)c1c(C)[nH]c(/C=C2\C(=O)Nc3ccc(F)cc32)c1C [Sunitinib, sunitinib malate]
C. COc1cc2ncnc(Nc3ccc(F)c(Cl)c3)c2cc1OCCCN1CCOCC1
// sort entries: concentration at 30 min, high to low Output spec: labels arranged per the requested ranking.
A, C, B

###

- TEST PROTOCOL: Mice pharmacokinetic study after oral administration of a mixture of 11 TKIs
- Assay type: in vivo, FVB wild-type mice
- TEST CONTEXT: male, FVB wild-type, mouse, whole blood, po, 1 mg/kg
Where a name gives a salt, the structure may show the parent alone.
REPORTED METRIC: concentration at 240 min (ng/mL)

Examples from the recorded data:
Cc1cn(-c2cc(NC(=O)c3ccc(C)c(Nc4nccc(-c5cccnc5)n4)c3)cc(C(F)(F)F)c2)cn1 :: 34.6
CNC(=O)c1ccccc1Sc1ccc2c(/C=C/c3ccccn3)n[nH]c2c1 :: 4.8
Cc1ccc(NC(=O)c2ccc(CN3CCN(C)CC3)cc2)cc1Nc1nccc(-c2cccnc2)n1 :: 11.1
C#Cc1cccc(Nc2ncnc3cc(OCCOC)c(OCCOC)cc23)c1 [Erlotinib, erlotinib hydrochloride] :: 14.4

a. COc1cc2ncnc(Nc3ccc(F)c(Cl)c3)c2cc1OCCCN1CCOCC1
b. CS(=O)(=O)CCNCc1ccc(-c2ccc3ncnc(Nc4ccc(OCc5cccc(F)c5)c(Cl)c4)c3c2)o1
c. Cc1nc(Nc2ncc(C(=O)Nc3c(C)cccc3Cl)s2)cc(N2CCN(CCO)CC2)n1
Sort these compounds on concentration at 240 min so the largest reading comes first. Lab note: record answer as labels in requested order.
a, b, c
(a: 32.7 ng/mL, b: 18.1 ng/mL, c: 10.1 ng/mL)

###

- TEST PROTOCOL: Mice pharmacokinetic study after oral administration of a mixture of 11 TKIs
- Assay type: in vivo, FVB wild-type mice
- TEST CONTEXT: male, FVB wild-type, mouse, whole blood, po, 1 mg/kg, Tmax, oral gavage 1 mg/kg each as a mixture of 11 TKIs, FVB wild-type mice, blood, n = 4
Where a name gives a salt, the structure may show the parent alone.
REPORTED METRIC: Tmax (h)

A. CNC(=O)c1cc(Oc2ccc(NC(=O)Nc3ccc(Cl)c(C(F)(F)F)c3)cc2)ccn1 [Sorafenib, sorafenib tosylate]
B. C#Cc1cccc(Nc2ncnc3cc(OCCOC)c(OCCOC)cc23)c1 [Erlotinib, erlotinib hydrochloride]
From the recorded data, which exceeds the other in Tmax: A or B ? Label of pick, please.
A
(A: 1 h, B: 0.25 h)

###

- TEST PROTOCOL: Mice pharmacokinetic study after oral administration of a mixture of 11 TKIs
- Type: in vivo, FVB wild-type mice
- TEST CONTEXT: male, FVB wild-type, mouse, whole blood, po, 1 mg/kg
REPORTED METRIC: concentration at 15 min (ng/mL)

Solved cases below.
COc1cc2ncnc(Nc3ccc(F)c(Cl)c3)c2cc1OCCCN1CCOCC1 [Gefitinib, gefitinib] :: 24.7
CNC(=O)c1ccccc1Sc1ccc2c(/C=C/c3ccccn3)n[nH]c2c1 [Axitinib, axitinib] :: 51.7

A. Cc1nc(Nc2ncc(C(=O)Nc3c(C)cccc3Cl)s2)cc(N2CCN(CCO)CC2)n1 [Dasatinib, dasatinib]
B. Cc1cn(-c2cc(NC(=O)c3ccc(C)c(Nc4nccc(-c5cccnc5)n4)c3)cc(C(F)(F)F)c2)cn1 [Nilotinib, nilotinib]
# return whichever of A and B has the smaller concentration at 15 min Reply briefly: the label of your chosen item.
A

###

- TEST PROTOCOL: Mice pharmacokinetic study after oral administration of a mixture of 11 TKIs
- Assay type: in vivo, FVB wild-type mice
- TEST CONTEXT: male, FVB wild-type, mouse, whole blood, po, 1 mg/kg
Where a name gives a salt, the structure may show the parent alone.
REPORTED METRIC: concentration at 120 min (ng/mL)

Reference set, count: 6
Cc1ccc(NC(=O)c2ccc(CN3CCN(C)CC3)cc2)cc1Nc1nccc(-c2cccnc2)n1 :: 19.9
CCN(CC)CCNC(=O)c1c(C)[nH]c(/C=C2\C(=O)Nc3ccc(F)cc32)c1C [Sunitinib, sunitinib malate] :: 14.7
CS(=O)(=O)CCNCc1ccc(-c2ccc3ncnc(Nc4ccc(OCc5cccc(F)c5)c(Cl)c4)c3c2)o1 :: 20.1
C#Cc1cccc(Nc2ncnc3cc(OCCOC)c(OCCOC)cc23)c1 [Erlotinib, erlotinib hydrochloride] :: 23
Cc1cn(-c2cc(NC(=O)c3ccc(C)c(Nc4nccc(-c5cccnc5)n4)c3)cc(C(F)(F)F)c2)cn1 :: 67.3
Cc1nc(Nc2ncc(C(=O)Nc3c(C)cccc3Cl)s2)cc(N2CCN(CCO)CC2)n1 :: 18.4

I. COc1cc2ncnc(Nc3ccc(F)c(Cl)c3)c2cc1OCCCN1CCOCC1
II. CNC(=O)c1ccccc1Sc1ccc2c(/C=C/c3ccccn3)n[nH]c2c1
// task: argmin of concentration at 120 min over [ I , II ] Write down the label attached to your selection.
II
(II: 11.1 ng/mL, I: 21.8 ng/mL)

###

- TEST PROTOCOL: Mice pharmacokinetic study after oral administration of a mixture of 11 TKIs
- Format: in vivo, FVB wild-type mice
- TEST CONTEXT: male, FVB wild-type, mouse, whole blood, po, 1 mg/kg
Counter-ions that a name gives are not always drawn.
REPORTED METRIC: concentration at 30 min (ng/mL)

Reference set (2 entries):
CNC(=O)c1ccccc1Sc1ccc2c(/C=C/c3ccccn3)n[nH]c2c1 [Axitinib, axitinib] :: 42.7
CS(=O)(=O)CCNCc1ccc(-c2ccc3ncnc(Nc4ccc(OCc5cccc(F)c5)c(Cl)c4)c3c2)o1 [Lapatinib, lapatinib] :: 16.3

a. Cc1nc(Nc2ncc(C(=O)Nc3c(C)cccc3Cl)s2)cc(N2CCN(CCO)CC2)n1 [Dasatinib, dasatinib]
b. C#Cc1cccc(Nc2ncnc3cc(OCCOC)c(OCCOC)cc23)c1 [Erlotinib, erlotinib hydrochloride]
Just tell me: smaller concentration at 30 min value, a or b ? Please respond with the label that marks your chosen entry.
a

###

- TEST PROTOCOL: Mice pharmacokinetic study after oral administration of a mixture of 11 TKIs
- Type: in vivo, FVB wild-type mice
- TEST CONTEXT: male, FVB wild-type, mouse, whole blood, po, 1 mg/kg
Where a name gives a salt, the structure may show the parent alone.
REPORTED METRIC: AUC(0-t) (ng·h/mL)

P. Cc1ccc(Nc2nccc(N(C)c3ccc4c(C)n(C)nc4c3)n2)cc1S(N)(=O)=O [Pazopanib, pazopanib hydrochloride]
Q. CNC(=O)c1cc(Oc2ccc(NC(=O)Nc3ccc(Cl)c(C(F)(F)F)c3)cc2)ccn1 [Sorafenib, sorafenib tosylate]
Identify the entry with the smaller AUC(0-t): P or Q . In your reply, give the label of the chosen option.
Q

###

- TEST PROTOCOL: Mice pharmacokinetic study after oral administration of a mixture of 11 TKIs
- Type: in vivo, FVB wild-type mice
- TEST CONTEXT: male, FVB wild-type, mouse, whole blood, po, 1 mg/kg
Structures can show the parent of a compound that is named as a salt.
REPORTED METRIC: concentration at 60 min (ng/mL)

Cc1cn(-c2cc(NC(=O)c3ccc(C)c(Nc4nccc(-c5cccnc5)n4)c3)cc(C(F)(F)F)c2)cn1 :: 68.8

1. C#Cc1cccc(Nc2ncnc3cc(OCCOC)c(OCCOC)cc23)c1 [Erlotinib, erlotinib hydrochloride]
2. CS(=O)(=O)CCNCc1ccc(-c2ccc3ncnc(Nc4ccc(OCc5cccc(F)c5)c(Cl)c4)c3c2)o1
Which has the smaller recorded concentration at 60 min, 1 or 2 ? Lab note: record the label of whichever item you select.
2
(2: 21.2 ng/mL, 1: 87.6 ng/mL)
